Quick reference for percent inhibition of PKK at 3.33 μM among some substances
# Test system: human PKK mRNA
# EXPERIMENTAL PROTOCOL: Dose-dependent antisense inhibition of human PKK in HepaRG cells, 0.12-10.00 uM (Example 4)
# Type: cell-based
# SETTINGS: Table 33, 3.33 μM, electroporation, ~16 h
Strand notation (5' to 3'): a small letter for the sugar, then the base; units joined by * are phosphorothioate-linked, units joined directly phosphodiester-linked; [ ] holds rarer units or linkages, { } end groups; capitals alone tell only the bases. e = 2'-O-(2-methoxyethyl) (MOE); [5mC] = 5-methylcytosine; d = 2'-deoxy (DNA)
For clarity, give the value followed by its unit.

Known percent inhibition of PKK at 3.33 μM results, listed for orientation:
SUBSTANCE	percent inhibition of PKK at 3.33 μM
531172 (antisense eT*eT*e[5mC]*eA*eA*dG*d[5mC]*d[5mC]*dT*dG*dG*dG*d[5mC]*dA*dG*e[5mC]*eA*e[5mC]*eA*eG) [compound 531172]	60%
531231 (eT*eA*eT*e[5mC]*eA*d[5mC]*dT*dG*dT*dA*d[5mC]*dT*dA*dG*dT*eT*eT*e[5mC]*e[5mC]*eT) [compound 531231]	76%
531123 (antisense eT*e[5mC]*e[5mC]*e[5mC]*eA*dG*d[5mC]*dT*d[5mC]*d[5mC]*dA*dG*dT*d[5mC]*dA*e[5mC]*e[5mC]*eA*e[5mC]*e[5mC]) [compound 531123]	71%
531026 (antisense eA*eT*e[5mC]*eA*eT*dG*dA*dT*dT*d[5mC]*d[5mC]*d[5mC]*dT*dT*d[5mC]*eT*eG*eA*eG*eA) [compound 531026]	75%

Sample 531121 (antisense eT*eT*eG*eG*eT*d[5mC]*dT*dA*d[5mC]*dA*dG*dA*dT*dT*d[5mC]*eA*eA*eT*eG*e[5mC]) [compound 531121] — what was its percent inhibition of PKK at 3.33 μM?
69%

Sample 531198 (eG*eG*eG*eA*eT*dT*dT*dT*dG*d[5mC]*dT*dG*dA*dA*dG*e[5mC]*eT*eG*eG*eT; antisense) [compound 531198] — what was its percent inhibition of PKK at 3.33 μM?
76%
